EXPERIMENTAL_TARGET: RecA (RecAEc) (Escherichia coli, UniProt P0A7G6 2-353)
Sequence (P0A7G6 2-353): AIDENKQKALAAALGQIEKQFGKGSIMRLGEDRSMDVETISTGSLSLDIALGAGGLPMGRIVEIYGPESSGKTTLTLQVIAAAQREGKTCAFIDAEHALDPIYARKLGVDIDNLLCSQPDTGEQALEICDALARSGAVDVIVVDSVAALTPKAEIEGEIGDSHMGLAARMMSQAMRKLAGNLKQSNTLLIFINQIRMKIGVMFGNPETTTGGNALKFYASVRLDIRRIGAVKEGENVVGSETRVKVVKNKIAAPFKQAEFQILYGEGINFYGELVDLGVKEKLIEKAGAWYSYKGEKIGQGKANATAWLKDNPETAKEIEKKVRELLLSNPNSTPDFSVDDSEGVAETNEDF
RUN_DESCRIPTION: fluorescence anisotropy
RECORDED_METRIC: pKd
pKd is a log-scale quantity: -log10 of the concentration expressed in molar.

Which pKd is reported for this binder? TTTTTTTTTTTTTTTT (ssDNA) [oligo dT16]
6.19

Origin of measurements: paper PMC3845372
